tgt: Amyloid-beta precursor protein (Homo sapiens)
protocolDescription: Inhibition of amyloid beta (1 to 42) (unknown origin) aggregation at 80 uM by ThT-fluorescence assay relative to control
Active and inactive are the calls of the source. The calls are words filed in the database; no cut-off is given here. Residues, ends and D or L forms follow the SMILES beside them. *: point of attachment. Trolox = Cc1c(C)c2c(c(C)c1O)CCC(C)(C(=O)*)O2
measuredAttribute: inhibition

compound	valueReported
CC[C@H](C)[C@H](NC(=O)[C@@H](NC(=O)[C@@H](NC(=O)CNC(=O)C1(C)CCc2c(C)c(O)c(C)c(C)c2O1)C(C)C)C(C)C)C(=O)N[C@@H](C)C(=O)N[C@H](C(=O)O)[C@@H](C)O (stereo not given in full) (Trolox-GVVIAT-OH)	5%
CSCC[C@H](NC(=O)[C@H](CC(C)C)NC(=O)C1(C)CCc2c(C)c(O)c(C)c(C)c2O1)C(=O)N[C@H](C(=O)NCC(=O)NCC(=O)N[C@H](C(=O)N[C@H](C(=O)O)C(C)C)C(C)C)C(C)C (stereo not given in full) (Trolox-LMVGGVV-OH)	inactive
CC[C@H](C)[C@H](NC(=O)[C@@H](NC(=O)[C@@H](NC(=O)CNC(=O)C1(C)CCc2c(C)c(O)c(C)c(C)c2O1)C(C)C)C(C)C)C(=O)N[C@@H](C)C(=O)O (stereo not given in full) (Trolox-GVVIA-OH)	4.7%
Cc1c(C)c2c(c(C)c1O)CCC(C)(C(=O)NCC(=O)N[C@H](C(=O)N[C@H](C(=O)O)C(C)C)C(C)C)O2 (stereo not given in full)	inactive
Cc1c(C)c2c(c(C)c1O)CCC(C)(C(=O)N[C@H](C(=O)O)C(C)C)O2 (stereo not given in full)	inactive

# credit: ChEMBL document CHEMBL3822381
